Values were extracted from patent US9808466B2.

Biological target: PIM-1 (Homo sapiens, UniProt P11309)
Construct: histidine tag (C); made in house
Sequence (P11309 whole entry): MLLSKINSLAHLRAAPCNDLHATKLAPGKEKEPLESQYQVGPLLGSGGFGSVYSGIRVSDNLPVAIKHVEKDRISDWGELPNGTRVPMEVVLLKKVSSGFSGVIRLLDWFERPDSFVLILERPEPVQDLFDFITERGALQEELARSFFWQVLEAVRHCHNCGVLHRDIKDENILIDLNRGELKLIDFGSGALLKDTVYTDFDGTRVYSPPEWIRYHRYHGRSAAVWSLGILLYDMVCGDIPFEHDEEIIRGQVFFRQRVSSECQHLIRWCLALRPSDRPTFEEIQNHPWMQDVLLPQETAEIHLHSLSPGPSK
Assay: PIM-1 biochemical assay (ADP Hunter)
Details: PIM1; read-out: PIM-1 activity, IC50 (semi-quantitative class)
test readout: IC50

[
  {
    "chemical string": "COc1ncc2cc1NS(=O)(=O)c1cccc(c1)C(=O)NCc1cncc(c1)-c1ncnc3sc-2cc13",
    "result": "100 to 1000 nM"
  }
]

Working through the 7 molecules below one at a time, give IC50 for each.
1. COc1ncc2cc1NS(=O)(=O)c1cccc(c1)C(=O)NCc1cncc(c1)-c1nc(C(C)C)nc3c1SC2=C3
2. COc1ncc2cc1NS(=O)(=O)c1cccc(c1)C(=O)NCc1cccc(c1F)-c1ccnc3ccc-2cc13
3. COc1ncc2cc1NS(=O)(=O)c1cccc(c1)C(=O)NCC1=CC=C(S1)c1c(C#N)cnc3c1SC2=C3
4. COc1ncc2cc1NS(=O)(=O)c1cccc(c1)C(=O)NCc1cncc(c1)-c1ncnc3c1SC2=C3C
5. COc1ncc2cc1NS(=O)(=O)c1cc(c(F)cc1F)C(=O)NCc1cncc(c1)-c1ncnc3c1SC2=C3
6. COc1ncc2cc1NS(=O)(=O)c1cccc(c1)C(=O)NCC1=CC=C(S1)c1ncnc3c1SC2=C3C
7. COc1ncc2cc1NS(=O)(=O)c1cccc(c1)C(=O)NCCn1cc(cn1)-c1cnc3ccc-2nn13

1: > 1000 nM; 2: > 1000 nM; 3: < 100 nM; 4: < 100 nM; 5: > 1000 nM; 6: < 100 nM; 7: > 1000 nM

Please go through the list and note IC50 for each molecule.
1. COc1ncc2cc1N(C)S(=O)(=O)c1cccc(c1)C(=O)NCc1cncc(c1)-c1ncnc3c1SC2=C3
2. COc1ncc2cc1NS(=O)(=O)c1cccc(c1)C(=O)NCc1cncc(c1)-c1ccnc3ccc-2cc13
3. COc1ncc2cc1NS(=O)(=O)c1cccc(c1)C(=O)NCc1csc(c1)-c1ncnc3c1SC2=C3
4. COc1ncc2cc1NS(=O)(=O)c1cccc(c1)C(=O)NCCn1cc(cn1)-c1cnn3ccc-2nc13
5. COc1ncc2cc1NS(=O)(=O)c1cccc(c1)C(=O)NCCn1cc(cn1)-c1cnc3ccc-2cn13
6. COc1ncc2cc1NS(=O)(=O)c1cccc(c1)C(=O)NCc1cncc(c1)-c1cnc3ccc-2cn13
7. COc1ncc2cc1NS(=O)(=O)c1cccc(c1)C(=O)NCc1cccc(c1)-c1cnc3ccc-2nn13

1: > 1000 nM; 2: > 1000 nM; 3: < 100 nM; 4: > 1000 nM; 5: > 1000 nM; 6: > 1000 nM; 7: > 1000 nM

Look up IC50 for the entries below, preserving their order.
1. COc1ncc2cc1NS(=O)(=O)c1cccc(c1)C(=O)NCc1cncc(c1)-c1ccnc3ccc-2nc13
2. COc1ncc2cc1NS(=O)(=O)c1cccc(c1)C(=O)NCC1=CC=C(S1)c1ncnc3c1SC2=C3

1: > 1000 nM; 2: < 100 nM

----------
Experiment: Pharmacokinetic in BALB-c female mice, i.v. and oral
Assay type: in vivo
Settings: mouse, po, P.O, dose 3.00 mg/Kg, plasma, read-out: C max (maximum plasma concentration after oral administration)
test readout: Cmax (ng/mL)
Numbers only, in ng/mL.

Field Cmax (entry COc1ncc2cc1NS(=O)(=O)c1cccc(c1)C(=O)N1CCc3ccc(cc3C1)-c1ccnc3ccc-2cc13 ) reads 962

----------
Test: Pharmacokinetic in BALB-c female mice, i.v. and oral
Format: in vivo
Conditions: mouse, plasma, iv, I.V, dose 5.00 mg/Kg, read-out: Cl (plasmatic clearance) (converted)
Mark Y for reported clearance of 6 mL/min/kg or greater; mark N for anything smaller.

[
  {
    "chemical string": "COc1ncc2cc1NS(=O)(=O)c1cccc(c1)C(=O)NCc1cccc(c1)-c1cnn3ccc-2nc13",
    "group label": "N"
  },
  {
    "chemical string": "COc1ncc2cc1NS(=O)(=O)c1cccc(c1)C(=O)NCc1cncc(c1)-c1ccnc3ccc-2nc13",
    "group label": "Y"
  },
  {
    "chemical string": "COc1ncc2cc1NS(=O)(=O)c1cccc(c1)C(=O)NCC1=CC=C(S1)c1ncnc3c1SC2=C3C",
    "group label": "N"
  },
  {
    "chemical string": "COc1ncc2cc1NS(=O)(=O)c1cccc(c1)C(=O)NCc1cccc(c1)-c1ncnc3ccc-2cc13",
    "group label": "N"
  }
]

Now let's try a different one.
In plain terms: is recorded clearance at least 6 mL/min/kg for COc1ncc2cc1NS(=O)(=O)c1cccc(c1)C(=O)NCCn1cc(cn1)-c1ncnc3ccc-2cc13 ?
Y

----------
Target: PI3K (p110α/p85α) (Homo sapiens, UniProt P42336)
Construct: purchased Carna Biosciences 07CBS-0402A
Sequence (P42336 whole entry): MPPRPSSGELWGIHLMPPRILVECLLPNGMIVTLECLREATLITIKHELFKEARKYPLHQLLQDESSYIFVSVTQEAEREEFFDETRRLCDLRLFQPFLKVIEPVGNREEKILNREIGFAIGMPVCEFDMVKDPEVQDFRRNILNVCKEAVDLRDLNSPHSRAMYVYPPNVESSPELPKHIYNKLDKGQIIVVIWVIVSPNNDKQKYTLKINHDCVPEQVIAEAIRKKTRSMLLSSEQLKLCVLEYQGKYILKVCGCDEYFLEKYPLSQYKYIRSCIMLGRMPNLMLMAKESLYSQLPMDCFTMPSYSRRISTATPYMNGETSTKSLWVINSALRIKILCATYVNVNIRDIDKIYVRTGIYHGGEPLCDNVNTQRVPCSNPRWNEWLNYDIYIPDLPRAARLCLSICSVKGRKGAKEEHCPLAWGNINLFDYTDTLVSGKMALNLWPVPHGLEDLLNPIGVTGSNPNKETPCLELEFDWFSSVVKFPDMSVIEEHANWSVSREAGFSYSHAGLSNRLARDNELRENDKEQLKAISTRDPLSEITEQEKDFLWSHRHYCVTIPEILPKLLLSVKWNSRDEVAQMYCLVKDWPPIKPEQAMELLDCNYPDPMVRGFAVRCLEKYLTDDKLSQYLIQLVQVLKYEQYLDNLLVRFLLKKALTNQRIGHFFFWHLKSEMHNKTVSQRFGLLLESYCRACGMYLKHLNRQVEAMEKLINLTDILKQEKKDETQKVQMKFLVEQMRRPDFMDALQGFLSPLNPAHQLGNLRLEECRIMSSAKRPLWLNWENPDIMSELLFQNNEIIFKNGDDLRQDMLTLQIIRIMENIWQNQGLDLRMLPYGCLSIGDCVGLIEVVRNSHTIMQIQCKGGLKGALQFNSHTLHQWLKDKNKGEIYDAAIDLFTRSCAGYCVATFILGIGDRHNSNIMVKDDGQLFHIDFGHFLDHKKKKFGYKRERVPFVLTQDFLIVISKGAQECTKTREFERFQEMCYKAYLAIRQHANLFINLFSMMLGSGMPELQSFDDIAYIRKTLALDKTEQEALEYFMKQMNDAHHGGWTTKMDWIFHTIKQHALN
Sequence (P27986 whole entry partner): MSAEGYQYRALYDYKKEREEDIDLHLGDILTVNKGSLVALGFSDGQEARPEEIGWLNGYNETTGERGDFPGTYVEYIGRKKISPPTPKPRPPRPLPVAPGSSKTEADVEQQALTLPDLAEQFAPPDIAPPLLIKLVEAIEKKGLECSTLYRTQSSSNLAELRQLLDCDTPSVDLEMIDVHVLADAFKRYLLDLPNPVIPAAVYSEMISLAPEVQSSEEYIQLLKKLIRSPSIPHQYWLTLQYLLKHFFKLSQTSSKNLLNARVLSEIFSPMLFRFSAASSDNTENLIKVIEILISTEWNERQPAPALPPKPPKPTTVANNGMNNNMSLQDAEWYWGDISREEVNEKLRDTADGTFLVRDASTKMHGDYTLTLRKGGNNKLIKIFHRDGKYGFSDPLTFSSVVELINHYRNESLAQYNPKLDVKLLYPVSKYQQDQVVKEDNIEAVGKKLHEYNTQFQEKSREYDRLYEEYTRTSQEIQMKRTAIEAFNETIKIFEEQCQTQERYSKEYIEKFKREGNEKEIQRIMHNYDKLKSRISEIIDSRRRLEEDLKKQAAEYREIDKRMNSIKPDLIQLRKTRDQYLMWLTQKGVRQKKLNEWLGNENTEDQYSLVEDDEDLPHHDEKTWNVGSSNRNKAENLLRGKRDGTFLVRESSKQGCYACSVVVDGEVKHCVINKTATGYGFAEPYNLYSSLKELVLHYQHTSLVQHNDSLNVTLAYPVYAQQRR
Assay: PI3K activity assay (ADP Hunter Plus)
Assay type: biochemical
Details: read-out: PI3K alpha activity, IC50 (semi-quantitative class)
pIC50: −log10 of the molar value.
Task for the reader: assign each of the following molecules its reported pIC50.

Take each entry in turn and give its pIC50.
1. COc1ncc2cc1NS(=O)(=O)c1cc(c(F)cc1F)C(=O)NCc1cncc(c1)-c1ccnc3ccc-2cc13
2. COc1ncc2cc1NS(=O)(=O)c1cccc(c1)C(=O)NCc1csc(c1)-c1ncnc3c1SC2=C3
3. COc1ncc2cc1NS(=O)(=O)c1cccc(c1)C(=O)NCC1=CC=C(S1)c1c(C#N)cnc3c1SC2=C3
4. COc1ncc2cc1NS(=O)(=O)c1cccc(c1)C(=O)NCc1cccc(c1)-c1cnc3ccc-2nn13
5. COc1ncc2cc1NS(=O)(=O)c1cccc(c1)C(=O)NCc1cncc(c1)-c1ccnc3ccc-2cc13

["> 7.00", "6.00 to 7.00", "< 6.00", "> 7.00", "> 7.00"]

Fill in pIC50 for each of the 2 molecules listed.
1. COc1ncc2cc1NS(=O)(=O)c1cccc(c1)C(=O)NC[C@H]1CCCN(C1)c1ncnc3c1SC2=C3
2. COc1ncc2cc1NS(=O)(=O)c1cccc(c1)C(=O)NCCn1cc(cn1)-c1cnc3ccc-2nn13

1. < 6.00
2. > 7.00

----------
Assay: Pharmacokinetic in BALB-c female mice, i.v. and oral
Type: in vivo
Settings: mouse, plasma, iv, I.V, dose 5.00 mg/Kg, read-out: MRT (Mean residence time)
Give measured MRT for each item. Keep answers brief.
Give bare numbers, in h.

# annotated cases, reported MRT shown
[
  {
    "chemical string": "COc1ncc2cc1NS(=O)(=O)c1cc(c(F)cc1F)C(=O)NCc1cncc(c1)-c1ccnc3ccc-2cc13",
    "test readout": "MRT",
    "measure unit": "h",
    "quantitative readout": 0.53
  },
  {
    "chemical string": "COc1ncc2cc1NS(=O)(=O)c1cccc(c1)C(=O)NCc1cccc(c1)-c1ccnc3ccc-2cc13",
    "test readout": "MRT",
    "measure unit": "h",
    "quantitative readout": 1.27
  },
  {
    "chemical string": "COc1ncc2cc1NS(=O)(=O)c1cccc(c1)C(=O)NCc1cccc(c1)-c1ncnc3ccc-2cc13",
    "test readout": "MRT",
    "measure unit": "h",
    "quantitative readout": 4.94
  },
  {
    "chemical string": "COc1ncc2cc1NS(=O)(=O)c1cccc(c1)C(=O)NCc1cncc(c1)-c1ccnc3ccc-2nc13",
    "test readout": "MRT",
    "measure unit": "h",
    "quantitative readout": 0.81
  },
  {
    "chemical string": "COc1ncc2cc1NS(=O)(=O)c1cccc(c1)C(=O)NCC1=CC=C(S1)c1ncnc3c1SC2=C3C",
    "test readout": "MRT",
    "measure unit": "h",
    "quantitative readout": 10.9
  }
]

I'm hoping you can list MRT for every compound here, please.
1. COc1ncc2cc1NS(=O)(=O)c1cccc(c1)C(=O)NCCn1cc(cn1)-c1ncnc3ccc-2cc13
2. COc1ncc2cc1NS(=O)(=O)c1cccc(c1)C(=O)NCc1cccc(c1)-c1cnn3ccc-2nc13

1.87
3.33

----------
Would you mind telling me the reported pIC50 of each entry?
Target: PI3K (p110α/p85α) (Homo sapiens, UniProt P42336)
Construct: purchased Carna Biosciences 07CBS-0402A
Assay: PI3K activity assay (ADP Hunter Plus)
Format: biochemical
Conditions: read-out: PI3K alpha activity (semi-quantitative IC50)
Procedure: The kinase activity was measured by using the commercial ADP Hunter™ Plus assay available from DiscoveRx (#33-016), which is a homogeneous assay to measure the accumulation of ADP, a universal product of kinase activity. […] Reaction was carried out for 1 hour at 25° C. […] Fluorescence counts were read in a Victor instrument (Perkin Elmer) with the recommended settings (544 and 580 nm as excitation and emission wavelengths, respectively). […]
pIC50: −log10 of the molar value.

[
  {
    "chemical string": "COc1ncc2cc1NS(=O)(=O)c1cccc(c1)C(=O)NCc1cc(ccn1)-c1cnc3sc-2nn13",
    "tested on": "PI3K (p110α/p85α) (Homo sapiens, UniProt P42336)",
    "test readout": "pIC50",
    "result": "> 7.00"
  },
  {
    "chemical string": "COc1ncc2cc1NS(=O)(=O)c1cccc(c1)C(=O)NCc1cc(F)cc(c1)-c1ncnc3c1SC2=C3C",
    "tested on": "PI3K (p110α/p85α) (Homo sapiens, UniProt P42336)",
    "test readout": "pIC50",
    "result": "> 7.00"
  },
  {
    "chemical string": "COCCOc1ccc2cc1C(=O)NCC1=CC=C(S1)c1ncnc3c1SC(=C3C)c1cnc(OC)c(c1)NS2(=O)=O",
    "tested on": "PI3K (p110α/p85α) (Homo sapiens, UniProt P42336)",
    "test readout": "pIC50",
    "result": "> 7.00"
  },
  {
    "chemical string": "COc1ncc2cc1NS(=O)(=O)c1ccc(Cl)c(c1)C(=O)NCC1=CC=C(S1)c1ccnc3c1SC2=C3C",
    "tested on": "PI3K (p110α/p85α) (Homo sapiens, UniProt P42336)",
    "test readout": "pIC50",
    "result": "> 7.00"
  }
]

Hi! Can you tell me pIC50 for each of these compounds?
1. COc1ncc2cc1NS(=O)(=O)c1ccc(F)c(c1)C(=O)NCC1=CC=C(S1)c1ncnc3c1SC2=C3C
2. COc1ncc2cc1NS(=O)(=O)c1cccc(c1)C(=O)NC[C@H]1CCN(C1)c1ncnc3c1SC2=C3
3. COc1ncc2cc1NS(=O)(=O)c1cccc(c1)C(=O)NCC1=C(C)C=C(S1)c1ncnc3c1SC2=C3
4. COc1ncc2cc1NS(=O)(=O)c1cccc(c1)C(=O)NC[C@@H]1CN(CCO1)c1ncnc3c1SC2=C3C
5. COc1ncc2cc1NS(=O)(=O)c1cccc(c1)C(=O)NC[C@@H]1CCN(C1)c1ncnc3c1SC2=C3
6. COCCOc1ccc2cc1C(=O)NCC1=CC=C(S1)c1ncnc3c1SC(=C3)c1cnc(OC)c(c1)NS2(=O)=O

1: > 7.00; 2: < 6.00; 3: 6.00 to 7.00; 4: > 7.00; 5: < 6.00; 6: 6.00 to 7.00

List pIC50 for every entry below, keeping the order given.
1. COc1ccc2cc1C(=O)NCC1=CC=C(S1)c1ncnc3c1SC(=C3C)c1cnc(OC)c(c1)NS2(=O)=O
2. COc1ncc2cc1NS(=O)(=O)c1cccc(c1)C(=O)NCc1ccncc1-c1ncnc3c1SC2=C3

1: > 7.00; 2: < 6.00

Look at each compound and report its pIC50.
1. COc1ncc2cc1NS(=O)(=O)c1cccc(c1)C(=O)NC[C@@H]1CCN(C1)c1ncnc3c1SC2=C3C
2. COc1ncc2cc1NS(=O)(=O)c1cccc(c1)C(=O)NCC1=CC=C(S1)c1ccnc3c1SC2=C3C

["> 7.00", "> 7.00"]
